Values were extracted from ChEMBL document CHEMBL5634173.

Tested on: U2OS
method_summary: Antiproliferative activity against human U2OS cells assessed as reduction in cell viability incubated for 72 hrs
Format: functional, cell-based
IC50 strictly less than 30 µM = MET. Otherwise NOT MET.

Recorded results for 5 compounds are shown here.
compound_smiles	category_label
O=C1C(=Cc2ccc([N+](=O)[O-])cc2)C(=O)c2ccccc21	NOT MET
O=C1C(=Cc2ccccc2[N+](=O)[O-])C(=O)c2ccccc21	NOT MET
N#Cc1cccc(C=C2C(=O)c3ccccc3C2=O)c1	NOT MET
O=C1C(=Cc2cccc([N+](=O)[O-])c2)C(=O)c2ccccc21	MET
O=C1C(=Cc2c([N+](=O)[O-])cccc2[N+](=O)[O-])C(=O)c2ccccc21	MET

Problem: Just wondering, is IC50 of `O=C1C(=Cc2ccc([N+](=O)[O-])cc2[N+](=O)[O-])C(=O)c2ccccc21` below 30 µM?
Solution: MET

Problem: Just wondering, is IC50 of `O=C1C(=Cc2cccnc2)C(=O)c2ccccc21` below 30 µM?
Solution: NOT MET
